Where do these numbers come from? They come from patent US8946439B2.

Target: hP2X2/3H (Homo sapiens, UniProt P56373+Q9UBL9)
Construct: expressed in transfected cells; host or cells: e.g. HEK293 or 1321N1
Sequence (Q9UBL9 1-471): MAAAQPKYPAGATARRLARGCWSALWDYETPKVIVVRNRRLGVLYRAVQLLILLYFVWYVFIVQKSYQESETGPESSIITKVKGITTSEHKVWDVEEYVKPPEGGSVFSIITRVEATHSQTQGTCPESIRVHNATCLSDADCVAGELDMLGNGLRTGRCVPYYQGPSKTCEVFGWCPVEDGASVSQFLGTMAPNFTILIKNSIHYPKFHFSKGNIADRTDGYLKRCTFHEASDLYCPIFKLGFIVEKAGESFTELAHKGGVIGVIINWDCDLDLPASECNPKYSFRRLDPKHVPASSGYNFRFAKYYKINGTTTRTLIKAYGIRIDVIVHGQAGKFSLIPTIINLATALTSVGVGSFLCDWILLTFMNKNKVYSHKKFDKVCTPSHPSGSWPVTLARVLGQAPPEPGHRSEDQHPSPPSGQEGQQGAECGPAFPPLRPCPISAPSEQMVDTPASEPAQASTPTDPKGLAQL
Sequence (P56373 1-397): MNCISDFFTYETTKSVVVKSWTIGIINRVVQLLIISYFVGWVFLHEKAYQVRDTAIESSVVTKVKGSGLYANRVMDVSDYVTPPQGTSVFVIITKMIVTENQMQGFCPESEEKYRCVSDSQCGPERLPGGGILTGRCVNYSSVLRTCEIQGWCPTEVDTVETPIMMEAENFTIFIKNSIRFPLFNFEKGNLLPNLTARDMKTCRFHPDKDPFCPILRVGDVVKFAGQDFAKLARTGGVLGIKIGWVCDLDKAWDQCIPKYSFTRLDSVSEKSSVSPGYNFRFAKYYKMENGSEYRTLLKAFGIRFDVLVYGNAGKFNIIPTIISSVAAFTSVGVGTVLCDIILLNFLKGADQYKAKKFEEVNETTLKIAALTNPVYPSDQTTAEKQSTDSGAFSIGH
Test: Calcium uptake assay (P2X antagonist assay), P2X2/3 heteromer
Type: cell-based
Conditions: Ca influx (calcium uptake assay), hP2X2/3H; read-out: IC50 hP2X2/3H
Below, each entry is listed alongside its reported IC50.

Cc1ccc(-c2cc(OC3COCC3O)cc(C(=O)N[C@H](C)c3cnc(C)nc3)c2)c(C#N)c1 (some centres unmarked) ... < 100 nM

What measured IC50 goes with Cc1ccc(-c2cc(Oc3nc(-c4ccccc4)cs3)cc(C(=O)N[C@H](C)c3ccc(C)nc3)c2)nc1 ?
100 to 500 nM

What measured IC50 goes with COCc1cc(C(=O)N[C@H](C)c2cnc(C)nc2)cc(-c2ccc(C)cn2)c1 ?
100 to 500 nM

What measured IC50 goes with Cc1ccc(-c2cc(C(=O)NCc3cnc(C)nc3)cc(S(=O)(=O)C(C)C)c2)cc1 ?
< 100 nM

What measured IC50 goes with Cc1ccc(-c2cc(OC3CCOC3)cc(C(=O)N[C@H](C)c3ccc(C)nc3)c2)c(C#N)c1 (some centres unmarked) ?
< 100 nM

What measured IC50 goes with Cc1ccc(-c2cc(Oc3nccs3)cc(C(=O)NCc3cnc(C)nc3)c2)cc1 ?
100 to 500 nM

What measured IC50 goes with COCC(CO)Oc1cc(C(=O)N[C@H](C)c2ccc(C)nc2)cc(-c2ccc(C)cc2)c1 (some centres unmarked) ?
< 100 nM

What measured IC50 goes with COCC(C)Oc1cc(C(=O)N[C@H](C)c2ccc(C)nc2)cc(-c2ccc(C)cc2)c1 (some centres unmarked) ?
< 100 nM

----------
Below, each entry is listed alongside its reported IC50.
Target: hP2X3 (Homo sapiens)
Construct: expressed in transfected cells; host or cells: e.g. HEK293 or 1321N1
Sequence (P56373 1-397): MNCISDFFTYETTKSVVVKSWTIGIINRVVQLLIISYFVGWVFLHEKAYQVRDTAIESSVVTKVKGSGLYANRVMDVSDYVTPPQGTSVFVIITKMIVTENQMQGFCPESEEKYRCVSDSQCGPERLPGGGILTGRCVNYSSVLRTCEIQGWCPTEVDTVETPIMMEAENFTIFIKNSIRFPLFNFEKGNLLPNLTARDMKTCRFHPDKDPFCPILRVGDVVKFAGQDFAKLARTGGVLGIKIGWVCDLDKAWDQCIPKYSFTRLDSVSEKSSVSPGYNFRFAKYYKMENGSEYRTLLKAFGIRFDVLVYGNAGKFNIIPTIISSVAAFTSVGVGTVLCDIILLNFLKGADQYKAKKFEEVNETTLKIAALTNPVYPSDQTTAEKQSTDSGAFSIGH
Test: Calcium uptake assay (P2X antagonist assay), P2X3 homomer
Format: cell-based
Settings: calcium uptake assay, hP2X3; read-out: IC50 hP2X3 (nM), Ca Influx

Examples with their reported IC50 follow.
Cc1ccc(-c2cc(C(=O)NCc3ccc(C)nc3)cc(C(=O)N3[C@H](C)CC[C@H]3C)c2)cc1 ... < 100 nM
Cc1ccc(-c2cc(C(=O)NCc3ccc(Cl)nc3)cc(C(=O)N3CCCC3)c2)cc1 ... < 100 nM
Cc1ccc(-c2cc(C(=O)NC(C)c3ccc4c(c3)OCO4)cc(C(=O)N3CCCC3)c2)cc1 (centres unmarked) ... 100 to 500 nM
Cc1ccc(-c2cc(C(=O)N[C@H](C)c3cnc(C)nc3)cc(C(=O)N3CCC3)c2)cc1 ... < 100 nM

What measured IC50 goes with Cc1ccc(-c2cc(C(=O)NCc3cnc(C)nc3)cc(C(=O)NCc3cnc(C)nc3)c2)cc1 ?
100 to 500 nM

What measured IC50 goes with COC1CCN(C(=O)c2cc(C(=O)NCc3cnc(C)nc3)cc(-c3ccc(C)cc3)c2)C1 (centres unmarked) ?
< 100 nM

What measured IC50 goes with Cc1ccc(-c2cc(C(=O)NCc3ccc(C)nc3)cc(C(=O)N(C)[C@@H]3CCNC3)c2)cc1 ?
100 to 500 nM

What measured IC50 goes with Cc1ccc(-c2cc(C(=O)NCc3ccc(C)nc3)cc(C(=O)N(C)C)c2)cc1 ?
< 100 nM

----------
Molecular target: hP2X2/3H (Homo sapiens, UniProt P56373+Q9UBL9)
Construct: expressed in transfected cells; host or cells: e.g. HEK293 or 1321N1
Assay: Calcium uptake assay (P2X antagonist assay), P2X2/3 heteromer
Assay type: cell-based
Conditions: calcium uptake assay, hP2X2/3H; read-out: IC50 hP2X2/3H (nM), Ca Influx
Below, each entry is listed alongside its reported IC50.

Examples with their reported IC50 follow.
Cc1ccc(-c2cc(C(=O)NCc3ccc(C)nc3)cc(C(=O)N3CCN4CCCC4C3)c2)cc1 (stereo not shown) ... < 100 nM
Cc1ccc(-c2cc(C(=O)NCc3ccc(C)nc3)cc(C(=O)N3CC4CN(C)CC4C3)c2)cc1 (stereo not shown) ... 100 to 500 nM
Cc1ccc(CNC(=O)c2cc(-c3ccc(C)c(C)c3)cc(S(C)(=O)=O)c2)cn1 ... > 1000 nM

Consider the record given below.
What measured IC50 goes with CCCS(=O)(=O)c1cc(C(=O)N[C@@H](C)CN2CCOCC2)cc(-c2ccc(C)cc2)c1 ?
100 to 500 nM

----------
Target: hP2X2/3H (Homo sapiens, UniProt P56373+Q9UBL9)
Construct: expressed in transfected cells; host or cells: e.g. HEK293 or 1321N1
Assay: Calcium uptake assay (P2X antagonist assay), P2X2/3 heteromer
Type: cell-based
Settings: Ca influx (calcium uptake assay), hP2X2/3H; read-out: IC50 hP2X2/3H
Below, each entry is listed alongside its reported IC50.

Examples with their reported IC50 follow.
Cc1ccc(-c2cc(C(=O)N[C@H](CO)c3ccc(C(F)F)nc3)cc(S(C)(=O)=O)c2)cc1 ... < 100 nM
Cc1ccc(-c2cc(Oc3ncc(CO)s3)cc(C(=O)N[C@H](C)c3ccc(C)nc3)c2)nc1 ... < 100 nM

Consider the record given below.
What measured IC50 goes with Cc1ccc(-c2cc(Oc3ccccn3)cc(C(=O)N[C@H](C)c3cnc(C)nc3)c2)nc1 ?
< 100 nM

----------
Biological target: hP2X3 (Homo sapiens, UniProt P56373)
Construct: expressed in transfected cells; host or cells: e.g. HEK293 or 1321N1
Assay: Calcium uptake assay (P2X antagonist assay), P2X3 homomer
Assay type: cell-based
Conditions: Ca influx (calcium uptake assay), hP2X3; read-out: IC50 hP2X3
pIC50: −log10 of the molar value.
Measured Attribute: pIC50

Cc1ccc(-c2cc(C(=O)N[C@H](C)c3cnc(C)nc3)cc(C(O)c3nccs3)c2)nc1 (stereo partly shown) [Compound 292] ... > 7.00

For hP2X3 (Homo sapiens, UniProt P56373), provide pIC50 of Cc1ccc(-c2cc(C(=O)N[C@H](C)c3ccc(C)nc3)cc(C(O)c3ccccn3)c2)cc1 (stereo partly shown) [Compound 241] please.
> 7.00

For hP2X3 (Homo sapiens, UniProt P56373), provide pIC50 of CCC(O)c1cc(C(=O)N[C@H](C)c2ccc(C)nc2)cc(-c2ccc(C)cc2)c1 (stereo partly shown) [Compound 379] please.
> 7.00

For hP2X3 (Homo sapiens, UniProt P56373), provide pIC50 of Cc1ccc(-c2cc(Oc3nccs3)cc(C(=O)NCc3cnc(C)nc3)c2)cc1 [Compound 237] please.
> 7.00

For hP2X3 (Homo sapiens, UniProt P56373), provide pIC50 of Cc1ccc(-c2cc(Oc3nccs3)cc(C(=O)N[C@H](C)c3ccc(C)nc3)c2)cc1 [Compound 239] please.
> 7.00

For hP2X3 (Homo sapiens, UniProt P56373), provide pIC50 of Cc1ccc(-c2cc(Oc3nc(Cl)cs3)cc(C(=O)N[C@H](C)c3ccc(C)nc3)c2)nc1 [Compound 384] please.
> 7.00

For hP2X3 (Homo sapiens, UniProt P56373), provide pIC50 of Cc1ccc(-c2cc(Oc3nc4ccccc4s3)cc(C(=O)N[C@H](C)c3ccc(C)nc3)c2)c(C#N)c1 [Compound 392] please.
6.30 to 7.00

For hP2X3 (Homo sapiens, UniProt P56373), provide pIC50 of Cc1ccc(-c2cc(OCC(O)CO)cc(C(=O)N[C@H](C)c3ccc(C)nc3)c2)nc1 (stereo partly shown) [Compound 344] please.
> 7.00

For hP2X3 (Homo sapiens, UniProt P56373), provide pIC50 of Cc1ccc(-c2cc(Oc3nccs3)cc(C(=O)NCc3ccc(C)nc3)c2)c(C#N)c1 [Compound 260] please.
> 7.00

For hP2X3 (Homo sapiens, UniProt P56373), provide pIC50 of Cc1ccc(-c2cc(Oc3ncccn3)cc(C(=O)N[C@H](C)c3cnc(C)nc3)c2)nc1 [Compound 273] please.
6.30 to 7.00
